// activity at 1 µM lookup, one value per entry
molecular target: Recombinant GST-TAG-MASTL (Homo sapiens); construct: GST; purchased Thermo Fisher Scientific; assay: HTRF-based kinase assay (HTRF KinEASE assay kit); format: biochemical; conditions: read-out: MASTL activity (%) HTRF (1 µM)
Sequence (Q96GX5 whole entry): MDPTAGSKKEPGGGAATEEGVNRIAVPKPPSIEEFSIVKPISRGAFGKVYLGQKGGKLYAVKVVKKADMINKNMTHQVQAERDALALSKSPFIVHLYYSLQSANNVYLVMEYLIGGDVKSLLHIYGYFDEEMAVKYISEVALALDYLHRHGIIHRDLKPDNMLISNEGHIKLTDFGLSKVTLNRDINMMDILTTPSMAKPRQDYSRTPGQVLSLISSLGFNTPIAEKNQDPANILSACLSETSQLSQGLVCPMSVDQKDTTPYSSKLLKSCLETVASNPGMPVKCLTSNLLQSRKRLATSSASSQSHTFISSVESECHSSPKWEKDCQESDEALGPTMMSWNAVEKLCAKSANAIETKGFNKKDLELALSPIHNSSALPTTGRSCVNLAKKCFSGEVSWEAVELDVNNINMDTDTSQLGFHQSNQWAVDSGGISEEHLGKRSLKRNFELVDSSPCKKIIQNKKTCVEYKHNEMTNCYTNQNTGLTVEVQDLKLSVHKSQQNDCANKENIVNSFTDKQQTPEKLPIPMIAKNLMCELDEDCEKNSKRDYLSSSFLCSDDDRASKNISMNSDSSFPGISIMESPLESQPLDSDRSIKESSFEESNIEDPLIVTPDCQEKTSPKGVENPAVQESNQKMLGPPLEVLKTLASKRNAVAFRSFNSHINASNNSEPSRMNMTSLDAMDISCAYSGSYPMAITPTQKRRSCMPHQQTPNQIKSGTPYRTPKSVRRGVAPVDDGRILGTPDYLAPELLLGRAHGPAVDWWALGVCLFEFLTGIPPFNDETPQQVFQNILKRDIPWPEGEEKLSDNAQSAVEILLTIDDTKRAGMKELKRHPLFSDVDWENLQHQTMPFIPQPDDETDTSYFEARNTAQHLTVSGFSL

molecule: N#CCc1ccc(Nc2nc(Nc3cc(Br)[nH]n3)c3ccccc3n2)cc1
activity at 1 µM [%]: 63.1

molecule: N#CCc1ccc(Nc2nc(Nc3cn[nH]c3)c3ccccc3n2)cc1
activity at 1 µM [%]: 92.5

molecule: NCCNC(=O)c1ccc(Nc2nc(Nc3cc(C4CC4)[nH]n3)c3ccccc3n2)cc1
activity at 1 µM [%]: 26.8

molecule: COc1cc(Nc2nc(Nc3ccc(CC#N)cc3)nc3ccccc23)n[nH]1
activity at 1 µM [%]: 67.2

molecule: N#Cc1cc(Cl)ccc1C1=CCN(c2nc(Nc3cc(C4CC4)[nH]n3)c3ccccc3n2)CC1
activity at 1 µM [%]: 61.2

molecule: N#Cc1ccc(CNc2nc(Nc3cc(C4CC4)[nH]n3)c3ccccc3n2)cc1
activity at 1 µM [%]: 43

molecule: CN(C)S(=O)(=O)c1ccc(Nc2nc(Nc3ccc(C(F)(F)F)cc3)nc3ccccc23)cc1 [compound 25c]
activity at 1 µM [%]: 108

molecule: O=C(O)c1ccc(Nc2nc(Nc3cc(C4CC4)[nH]n3)c3ccccc3n2)cc1
activity at 1 µM [%]: 56.6

molecule: CN(C)S(=O)(=O)c1ccc(Nc2nc(Nc3ccccc3)nc3ccccc23)cc1 [compound 25d]
activity at 1 µM [%]: 107

molecule: c1ccc2c(Nc3cc(C4CC4)[nH]n3)nc(N3CC4CC3CN4)nc2c1 (centres unmarked)
activity at 1 µM [%]: 25.5

molecule: c1ccc2c(Nc3cc(C4CC4)[nH]n3)nc(N3CC4CCC(C3)N4)nc2c1
activity at 1 µM [%]: 6.6

molecule: c1ccc2c(Nc3cc(C4CC4)[nH]n3)nc(N3CC4CCC3CN4)nc2c1 (centres unmarked)
activity at 1 µM [%]: 36.5

molecule: N#Cc1ccccc1S(=O)(=O)N1CC2CC1CN2c1nc(Nc2cc(C3CC3)[nH]n2)c2ccccc2n1 (centres unmarked) [compound 15v]
activity at 1 µM [%]: 29.5

molecule: N#CCc1ccc(C2=CCN(c3nc(Nc4cc(C5CC5)[nH]n4)c4ccccc4n3)CC2)cc1F
activity at 1 µM [%]: 30.8

molecule: NCCCNC(=O)c1ccc(Nc2nc(Nc3cc(C4CC4)[nH]n3)c3ccccc3n2)cc1
activity at 1 µM [%]: 36.2

molecule: C1=C(c2nc(Nc3cc(C4CC4)[nH]n3)c3ccccc3n2)CCNC1
activity at 1 µM [%]: 57.2

molecule: N#CCc1ccc(Nc2nc(Nc3cc[nH]n3)c3ccccc3n2)cc1
activity at 1 µM [%]: 102

molecule: NCCCCNC(=O)c1ccc(Nc2nc(Nc3cc(C4CC4)[nH]n3)c3ccccc3n2)cc1
activity at 1 µM [%]: 58.3

molecule: Cc1nn(C)c(C)c1Nc1nc(Nc2ccc(CC#N)cc2)nc2ccccc12
activity at 1 µM [%]: 123

molecule: Cc1n[nH]c(C)c1Nc1nc(Nc2ccc(CC#N)cc2)nc2ccccc12
activity at 1 µM [%]: 93.7
